pIC50 overview
Target: hSCN9A (Homo sapiens)
Construct: expressed in transfected cells
Experiment: Whole-cell patch-clamp electrophysiology (conventional or PatchXpress), HEK cells expressing hSCN9A, estimated IC-50
Format: cell-based
Details: estimated IC-50, HEK cells expressing hSCN9A; class symbols or bounds; read-out: SCN9A EIC-50
Protocol: Human Embryonic Kidney (HEK) cells were transfected with hSCN3A or hSCN9A constructs using lipofectamine reagent (Invitrogen), using standard techniques. […] The voltage-dependence of inactivation was determined by applying a series of depolarizing prepulses (8 sec long in 10 mV increments) from a negative holding potential. […] Cells were then voltage clamped at the empirically determined V1/2. […]
pIC50: −log10 of the molar value.

compound: O=S(=O)(Nc1nccs1)c1ccc(Nc2nc(CN3CCC[C@H]3CN3CCCC3)cs2)cc1 [Compound 58]
recorded value: 5.00 to 5.70
--
compound: Cn1c(Nc2ccc(S(=O)(=O)Nc3nccs3)cc2)nc2ccc(Cl)cc21 [Compound 101]
recorded value: 5.00 to 5.70
--
compound: Cc1nc(Nc2ccc(S(=O)(=O)Nc3nccs3)cc2)sc1C [Compound 80]
recorded value: < 6.00
--
compound: Cc1cc(Nc2ccc(S(=O)(=O)Nc3ncc(Cl)s3)cc2)n(-c2ccccc2)n1 [Compound 163]
recorded value: 5.00 to 5.70
--
compound: O=S(=O)(Nc1nccs1)c1ccc(Nc2nccc(OCc3ccc(C(F)(F)F)cc3)n2)cc1 [Compound 55]
recorded value: < 6.00

## Input Report pIC50 for O=S(=O)(Nc1nccs1)c1ccc(Nc2ccccc2-c2ccccc2)cc1F [Compound 172] please.
## Output > 5.70

## Input Report pIC50 for O=S(=O)(Nc1nccs1)c1ccc(Nc2nnc(Cc3ccc(Cl)cc3)o2)cc1 [Compound 118] please.
## Output < 6.00

## Input Report pIC50 for Cc1cc(Nc2ccc(S(=O)(=O)Nc3nccs3)c(F)c2)n(-c2c(F)cccc2F)n1 [Compound 190] please.
## Output > 5.70

----------
molecular target: hSCN9A (Homo sapiens, UniProt Q15858); construct: expressed in transfected cells; assay: Whole-cell patch-clamp electrophysiology (conventional or PatchXpress), HEK cells expressing hSCN9A, estimated IC-50; assay type: cell-based; details: estimated IC-50, HEK cells expressing hSCN9A; class symbols or bounds; read-out: SCN9A EIC-50
Sequence (Q15858 whole entry): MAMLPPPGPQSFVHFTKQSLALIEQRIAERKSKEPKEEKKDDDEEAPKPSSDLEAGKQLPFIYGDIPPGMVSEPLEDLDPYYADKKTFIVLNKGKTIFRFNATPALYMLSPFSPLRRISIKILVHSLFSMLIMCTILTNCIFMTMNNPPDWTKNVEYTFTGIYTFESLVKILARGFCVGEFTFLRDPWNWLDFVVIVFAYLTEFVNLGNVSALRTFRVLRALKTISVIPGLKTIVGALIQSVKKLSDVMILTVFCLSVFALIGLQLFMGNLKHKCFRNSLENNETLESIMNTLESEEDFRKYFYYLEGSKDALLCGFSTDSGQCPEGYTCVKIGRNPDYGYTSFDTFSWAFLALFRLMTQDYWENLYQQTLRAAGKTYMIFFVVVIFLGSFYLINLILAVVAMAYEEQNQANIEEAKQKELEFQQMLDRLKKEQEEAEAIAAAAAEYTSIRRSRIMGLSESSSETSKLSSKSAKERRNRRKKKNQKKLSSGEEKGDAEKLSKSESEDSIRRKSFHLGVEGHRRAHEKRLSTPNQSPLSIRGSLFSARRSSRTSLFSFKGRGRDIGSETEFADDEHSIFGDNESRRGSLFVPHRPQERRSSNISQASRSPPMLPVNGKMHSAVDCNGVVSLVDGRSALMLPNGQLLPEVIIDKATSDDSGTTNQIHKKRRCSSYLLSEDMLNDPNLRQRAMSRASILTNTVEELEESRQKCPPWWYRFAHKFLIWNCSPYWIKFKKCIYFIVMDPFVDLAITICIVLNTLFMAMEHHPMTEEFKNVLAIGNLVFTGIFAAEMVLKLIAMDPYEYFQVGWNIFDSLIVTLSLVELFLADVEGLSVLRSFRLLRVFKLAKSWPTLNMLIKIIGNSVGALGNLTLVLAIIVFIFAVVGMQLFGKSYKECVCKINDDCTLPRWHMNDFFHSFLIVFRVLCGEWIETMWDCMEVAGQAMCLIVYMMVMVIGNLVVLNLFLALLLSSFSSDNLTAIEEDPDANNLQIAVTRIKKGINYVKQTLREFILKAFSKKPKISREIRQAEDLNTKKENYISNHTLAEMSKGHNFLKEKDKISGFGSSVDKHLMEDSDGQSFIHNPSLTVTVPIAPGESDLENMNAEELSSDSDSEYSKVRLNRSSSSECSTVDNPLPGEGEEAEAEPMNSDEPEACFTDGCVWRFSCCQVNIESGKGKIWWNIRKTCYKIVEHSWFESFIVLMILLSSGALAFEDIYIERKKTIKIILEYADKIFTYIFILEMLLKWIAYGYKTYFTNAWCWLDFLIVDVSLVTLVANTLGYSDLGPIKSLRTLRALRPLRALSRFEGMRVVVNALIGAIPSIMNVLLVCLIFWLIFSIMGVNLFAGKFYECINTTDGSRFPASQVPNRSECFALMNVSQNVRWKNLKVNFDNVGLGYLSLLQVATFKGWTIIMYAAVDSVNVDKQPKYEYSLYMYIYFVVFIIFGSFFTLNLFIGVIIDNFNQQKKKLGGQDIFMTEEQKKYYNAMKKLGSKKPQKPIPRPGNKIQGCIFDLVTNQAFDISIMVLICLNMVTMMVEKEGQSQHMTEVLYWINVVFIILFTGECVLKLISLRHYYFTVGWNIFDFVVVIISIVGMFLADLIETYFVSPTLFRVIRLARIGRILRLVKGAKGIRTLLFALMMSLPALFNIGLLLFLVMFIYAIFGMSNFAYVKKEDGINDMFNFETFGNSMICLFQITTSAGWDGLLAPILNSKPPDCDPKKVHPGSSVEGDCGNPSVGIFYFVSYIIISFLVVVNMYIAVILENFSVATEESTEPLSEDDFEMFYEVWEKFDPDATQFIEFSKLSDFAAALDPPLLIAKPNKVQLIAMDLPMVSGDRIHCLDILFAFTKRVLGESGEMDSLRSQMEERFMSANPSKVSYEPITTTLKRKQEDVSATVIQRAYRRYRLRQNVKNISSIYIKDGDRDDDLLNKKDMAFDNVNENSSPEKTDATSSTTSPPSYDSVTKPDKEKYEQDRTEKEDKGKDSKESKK
pIC50: −log10 of the molar value.
pIC50 overview

compound: Cc1cc(Nc2ccc(S(=O)(=O)Nc3nccs3)cc2)n(CC2CCCCC2)n1
pIC50: < 6.00
--
compound: Cc1cc(Nc2ccc(S(=O)(=O)Nc3nccs3)c(F)c2)n(-c2ccc(Cl)cc2)n1
pIC50: > 5.70
--
compound: Cc1cnc(NS(=O)(=O)c2ccc(Nc3nc(Cc4ccc(Cl)cc4)cs3)cc2F)s1
pIC50: 5.00 to 5.70
--
compound: O=S(=O)(Nc1nccs1)c1ccc(Nc2cc(C3CC3)nn2-c2ccccc2)cc1
pIC50: > 5.70
--
compound: Cn1nc(Cc2ccc(Cl)cc2)c(C(N)=O)c1Nc1ccc(S(=O)(=O)Nc2nccs2)cc1
pIC50: < 6.00
--
compound: Cc1cc(Nc2ccc(S(=O)(=O)Nc3nnc(C4CC4)s3)c(F)c2)n(-c2ccccc2)n1
pIC50: < 6.00
--
compound: Cn1nc(Cc2ccc(Cl)cc2)cc1Nc1ccc(S(=O)(=O)Nc2nccs2)cc1F
pIC50: > 5.70

Please find the next compound below.
## Input Test system hSCN9A (Homo sapiens, UniProt Q15858); read-out pIC50; what value for O=S(=O)(Nc1nncs1)c1ccc(Nc2ccn(Cc3ccc(Cl)cc3)n2)cc1F ?
## Output > 5.70

----------
IC50 overview
target: hSCN9A (Homo sapiens, UniProt Q15858); construct: expressed in transfected cells; assay: Whole-cell patch-clamp electrophysiology (conventional or PatchXpress), HEK cells expressing hSCN9A, estimated IC-50; assay type: cell-based; conditions: estimated IC-50, HEK cells expressing hSCN9A; class symbols or bounds; read-out: SCN9A EIC-50

compound: O=S(=O)(Nc1nccs1)c1ccc(Nc2ccn(Cc3ccc(Cl)cc3F)n2)cc1F
IC50: < 2000 nM

compound: O=S(=O)(Nc1nccs1)c1ccc(Nc2ncc(S(=O)(=O)c3ccc(Cl)cc3)s2)cc1F
IC50: > 10000 nM

compound: Cc1nn(C(C)(C)C)c(Nc2ccc(S(=O)(=O)Nc3nccs3)cc2)c1-c1ccccc1
IC50: > 1000 nM

## Input Report IC50 for COCc1nnc(NS(=O)(=O)c2ccc(Nc3cc(C)nn3-c3ccccc3)cc2F)s1 please.
## Output > 1000 nM

## Input Report IC50 for Cc1cc(Nc2ccc(S(=O)(=O)Nc3nccs3)c(F)c2)n(-c2ccccc2F)n1 please.
## Output < 2000 nM

## Input Report IC50 for Cc1cc(Nc2ccc(S(=O)(=O)Nc3nnc(C(C)C)s3)c(F)c2)n(-c2ccccc2)n1 please.
## Output > 1000 nM

## Input Report IC50 for O=S(=O)(Nc1nccs1)c1ccc(Nc2nnc(Cc3ccc(Cl)cc3)s2)cc1 please.
## Output 2000 to 10000 nM

## Input Report IC50 for O=S(=O)(Nc1nccs1)c1ccc2nn(Cc3ccc(OC(F)(F)F)cc3)cc2c1 please.
## Output 2000 to 10000 nM

----------
pIC50 overview
molecular target: hSCN9A (Homo sapiens, UniProt Q15858); construct: expressed in transfected cells; test: Whole-cell patch-clamp electrophysiology (conventional or PatchXpress), HEK cells expressing hSCN9A, estimated IC-50; type: cell-based; settings: estimated IC-50, HEK cells expressing hSCN9A; class symbols or bounds; read-out: SCN9A EIC-50
pIC50: −log10 of the molar value.

Illustrative cases are given below, each with its answer.
compound: O=C1CC(c2ccccc2)Cc2nc(Nc3ccc(S(=O)(=O)Nc4nccs4)cc3)sc21 (centres unmarked)
recorded value: < 6.00

compound: O=S(=O)(Nc1nccs1)c1ccc(Nc2nc(C[S+]([O-])c3ccc(F)cc3)cs2)cc1 (centres unmarked)
recorded value: < 6.00

compound: Cc1n[nH]c(Nc2ccc(S(=O)(=O)Nc3nccs3)cc2)c1-c1ccccc1
recorded value: < 6.00

compound: O=S(=O)(Nc1nccs1)c1ccc(Nc2nc(CC(c3ccccc3)c3ccccc3)cs2)cc1
recorded value: > 5.70

Please find the next compound below.
## Input Test system hSCN9A (Homo sapiens, UniProt Q15858); read-out pIC50; what value for O=S(=O)(Nc1nccs1)c1ccc(Nc2nc(CCCOc3ccccc3)cs2)cc1 ?
## Output 5.00 to 5.70

----------
molecular target: hSCN9A (Homo sapiens, UniProt Q15858); construct: expressed in transfected cells; assay: Whole-cell patch-clamp electrophysiology (conventional or PatchXpress), HEK cells expressing hSCN9A, estimated IC-50; assay type: cell-based; settings: estimated IC-50, HEK cells expressing hSCN9A; class symbols or bounds; read-out: SCN9A EIC-50
pIC50: −log10 of the molar value.
readout label: pIC50

compound: Cn1nc(Cc2ccc(Cl)c(F)c2)cc1Nc1ccc(S(=O)(=O)Nc2nccs2)cc1F
pIC50: > 5.70

compound: CC(C)c1nnc(NS(=O)(=O)c2ccc(Nc3ccn(Cc4ccc(Cl)cc4)n3)cc2F)s1
pIC50: < 6.00

compound: O=S(=O)(Nc1nccs1)c1ccc(Nc2ncn(Cc3cccc(C(F)(F)F)c3)n2)c(F)c1
pIC50: > 5.70

compound: COC(=O)c1sc(Nc2ccc(S(=O)(=O)Nc3nccs3)cc2)nc1C
pIC50: < 5.52

## Input Test system hSCN9A (Homo sapiens, UniProt Q15858); read-out pIC50; what value for O=S(=O)(Nc1nccs1)c1ccc(Nc2nc(CNCCOc3ccccc3)cs2)cc1 ?
## Output < 6.00

## Input Test system hSCN9A (Homo sapiens, UniProt Q15858); read-out pIC50; what value for Cn1nc(-c2ccc(Cl)cc2)cc1Nc1ccc(S(=O)(=O)Nc2nccs2)c(F)c1 ?
## Output > 5.70

## Input Test system hSCN9A (Homo sapiens, UniProt Q15858); read-out pIC50; what value for Cc1cc(Nc2ccc(S(=O)(=O)Nc3nccs3)cc2)n(Cc2ccncc2)n1 ?
## Output < 6.00

## Input Test system hSCN9A (Homo sapiens, UniProt Q15858); read-out pIC50; what value for COc1ccc(CNCc2csc(Nc3ccc(S(=O)(=O)Nc4nccs4)cc3)n2)c(OC)c1 ?
## Output 5.00 to 5.70

## Input Test system hSCN9A (Homo sapiens, UniProt Q15858); read-out pIC50; what value for CC1(C)CC(=O)c2sc(Nc3ccc(S(=O)(=O)Nc4nccs4)cc3)nc2C1 ?
## Output < 6.00

## Input Test system hSCN9A (Homo sapiens, UniProt Q15858); read-out pIC50; what value for CC(C)(C)n1nc(Cc2cccc(Cl)c2)cc1Nc1ccc(S(=O)(=O)Nc2nccs2)cc1F ?
## Output > 5.70

## Input Test system hSCN9A (Homo sapiens, UniProt Q15858); read-out pIC50; what value for COc1cccc(-n2nc(C)cc2Nc2ccc(S(=O)(=O)Nc3nccs3)c(F)c2)c1 ?
## Output > 5.70

## Input Test system hSCN9A (Homo sapiens, UniProt Q15858); read-out pIC50; what value for O=S(=O)(Nc1nccs1)c1ccc(Nc2nccc(OCC3CCCCC3)n2)cc1 ?
## Output < 5.00

## Input Test system hSCN9A (Homo sapiens, UniProt Q15858); read-out pIC50; what value for O=S(=O)(Nc1nccs1)c1ccc(Nc2nc(CCCOc3ccc(Cl)cc3)cs2)cc1 ?
## Output > 5.70

## Input Test system hSCN9A (Homo sapiens, UniProt Q15858); read-out pIC50; what value for O=S(=O)(Nc1nccs1)c1ccc(Nc2nc(C(F)(F)F)cs2)cc1 ?
## Output 5.00 to 5.70

## Input Test system hSCN9A (Homo sapiens, UniProt Q15858); read-out pIC50; what value for CC(C)(C)c1csc(Nc2ccc(S(=O)(=O)Nc3nccs3)nc2)n1 ?
## Output < 6.00

## Input Test system hSCN9A (Homo sapiens, UniProt Q15858); read-out pIC50; what value for O=S(=O)(Nc1nccs1)c1ccc(Nc2nc(COc3ccc(Cl)cc3Cl)cs2)cc1 ?
## Output > 5.70

## Input Test system hSCN9A (Homo sapiens, UniProt Q15858); read-out pIC50; what value for Cc1cc(Cl)ccc1OCc1csc(Nc2ccc(S(=O)(=O)Nc3nccs3)cc2)n1 ?
## Output > 5.70

Taken from patent US8124610B2.
